B1: TCEB3B (parent)
chain: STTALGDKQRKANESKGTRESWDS

# Variants of: B1
# protocol_description: protein stability index of a GFP-peptide fusion (GPS, HEK-293T) (PSI 1-6); higher = more stable;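 also: lentivirally expressed fusions sorted by FACS into six bins by GFP to DsRed ratio, PSI derived from sequencing read proportions per bin multiplied by bin number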
# experimental_parameters: c terminus: a fixed tail appended
measurement_name: protein stability index
Enter the number alone.

- variant_description: "K8R"
  observed_result: 4.08

State the recorded protein stability index for this entry: `K8C`
4.12

Another variant to check: `D7T`
3.52

Please answer likewise for `T2A`
4.32
